Measured values drawn from ChEMBL document CHEMBL1145210 for this set.

Tested on: HeLa
Assay: In vitro Inhibition on growth of human HeLa cervical carcinoma cell line
Assay type: functional, cell-based
experimental-readout: IC50 (µM)
# output: bare number, implied unit µM

Worked cases, IC50 given:
CC(C)/N=C(/N)c1ccc2c(c1)sc1c(O)nc3ccc(/C(N)=N\C(C)C)cc3c12 :: 31.6
CC(C)/N=C(/N)c1ccc2nc(O)c3sc4ccccc4c3c2c1 :: 25.3
CC(C)/N=C(/N)c1ccc(NC(=O)c2sc3cc(Br)ccc3c2Cl)cc1 :: 2.15
COc1ccc(NC(=O)c2sc3cc(C#N)ccc3c2Cl)cc1 :: 40.4
CC(C)/N=C(/N)c1ccc(NC(=O)c2sc3ccccc3c2Cl)cc1 :: 12.9
CC(C)/N=C(/N)c1ccc2c(c1)sc1c(O)nc3ccc(Br)cc3c12 :: 8.92
COc1ccc2c(Cl)c(C(=O)Nc3ccc(C(=N)NC(C)C)cc3)sc2c1 :: 2.7
CC(C)/N=C(/N)c1ccc2c(Cl)c(C(=O)Nc3ccccc3)sc2c1 :: 4.26

Can you share its IC50? I mean this molecule: "N#Cc1ccc(NC(=O)c2sc3ccccc3c2Cl)cc1"
0.86

Would you mind doing "COC(=O)c1ccc2c(c1)sc1c(O)nc3ccc(C(=N)NC(C)C)cc3c12" as well?
4.79

Would you mind doing "COC(=O)c1ccc(NC(=O)c2sc3cc(C(=N)NC(C)C)ccc3c2Cl)cc1" as well?
5.65

Would you mind doing "CC(C)/N=C(/N)c1ccc2c(c1)sc1c(O)nc3ccccc3c12" as well?
49.2

Would you mind doing "CC(C)/N=C(/N)c1ccc2nc(O)c3sc4cc(C#N)ccc4c3c2c1" as well?
6.14

Would you mind doing "CC(C)/N=C(/N)c1ccc(NC(=O)c2sc3cc(/C(N)=N\C(C)C)ccc3c2Cl)cc1" as well?
25.6

Would you mind doing "Cc1ccc2c(c1)sc1c(O)nc3ccc(/C(N)=N\C(C)C)cc3c12" as well?
4.3

Would you mind doing "CC(C)/N=C(/N)c1ccc2c(Cl)c(C(=O)Nc3ccc(Br)cc3)sc2c1" as well?
3.05

Would you mind doing "COC(=O)c1ccc2nc(O)c3sc4cc(C(=N)NC(C)C)ccc4c3c2c1" as well?
15.8

Would you mind doing "CC(C)/N=C(/N)c1ccc(NC(=O)c2sc3cc(C#N)ccc3c2Cl)cc1" as well?
22.2
